Overview of recorded log10 of IC50 for various compounds
- ASSAY DETAILS: Inhibition of Trypanosoma brucei GSK3 using biotinylated GSP2 substrate by flashplate assay
MEASURE NAME: log10 of IC50 (log10 of the value in nM)

>  <RECORD SMILES>
COc1cccc(OC)c1C(=O)Nc1c[nH]nc1C(=O)NCCN1CCOCC1

>  <log10 of IC50>
1.73

$$$$
>  <RECORD SMILES>
CO[C@H]1CC[C@H](NC(=O)c2n[nH]cc2NC(=O)c2cnc3ccccn23)CC1

>  <log10 of IC50>
1.97

$$$$
>  <RECORD SMILES>
CO[C@H]1CC[C@H](NC(=O)c2n[nH]cc2NC(=O)c2cc(Cl)cc(Cl)c2)CC1

>  <log10 of IC50>
1.76

$$$$
>  <RECORD SMILES>
CO[C@H]1CC[C@H](NC(=O)c2n[nH]cc2NC(=O)c2c(C)nc3ccccn23)CC1

>  <log10 of IC50>
2.00

$$$$
>  <RECORD SMILES>
COc1cccc(OC)c1C(=O)Nc1c[nH]nc1C(=O)NC1CCCCCC1

>  <log10 of IC50>
0.00

$$$$
>  <RECORD SMILES>
COc1cccc(OC)c1C(=O)Nc1c[nH]nc1C(=O)NCc1ncccc1C

>  <log10 of IC50>
2.15

$$$$
>  <RECORD SMILES>
COc1cc(OC)c(C(=O)Nc2c[nH]nc2C(=O)N[C@H]2CC[C@H](OC)CC2)c(OC)c1

>  <log10 of IC50>
0.48

$$$$
>  <RECORD SMILES>
COc1ccccc1CC(=O)Nc1c[nH]nc1C(=O)N[C@H]1CC[C@H](OC)CC1

>  <log10 of IC50>
2.70

$$$$
>  <RECORD SMILES>
COc1cccc(OC)c1C(=O)Nc1c[nH]nc1C(=O)NC1CCC1

>  <log10 of IC50>
0.90

$$$$
>  <RECORD SMILES>
CO[C@H]1CC[C@H](NC(=O)c2n[nH]cc2NC(=O)c2ccccc2Nc2ccccc2)CC1

>  <log10 of IC50>
1.04

$$$$

* * *

- System: Trypanosoma brucei brucei
- ASSAY DETAILS: Trypanocidal activity against bloodstream stage of Trypanosoma brucei brucei assessed as inhibition of proliferation after 72 hrs
- Type: functional, organism-based
Category | rule: reported EC50 within range, see bucket 1: < 3 µM; bucket 2: ≥ 3 µM and < 7 µM; bucket 3: ≥ 7 µM

>  <MOLECULE>
COc1cccc(OC)c1C(=O)Nc1c[nH]nc1C(=O)NCc1ccccn1

>  <GROUP LABEL>
bucket 3

$$$$
>  <MOLECULE>
CO[C@H]1CC[C@H](NC(=O)c2n[nH]cc2NC(=O)c2ncoc2-c2ccccc2)CC1

>  <GROUP LABEL>
bucket 3

$$$$
>  <MOLECULE>
COc1cccc(OC)c1C(=O)Nc1c[nH]nc1C(=O)N[C@H]1CC[C@H](O)CC1

>  <GROUP LABEL>
bucket 2

$$$$
>  <MOLECULE>
CO[C@H]1CC[C@H](NC(=O)c2n[nH]cc2NC(=O)c2cc3ccccc3o2)CC1

>  <GROUP LABEL>
bucket 1

$$$$
>  <MOLECULE>
CO[C@H]1CC[C@H](NC(=O)c2n[nH]cc2NC(=O)c2ccc(N3CCCC3)cc2)CC1

>  <GROUP LABEL>
bucket 1

$$$$
>  <MOLECULE>
CCCCCNC(=O)c1n[nH]cc1NC(=O)c1c(OC)cccc1OC

>  <GROUP LABEL>
bucket 3

$$$$
>  <MOLECULE>
CO[C@H]1CC[C@H](NC(=O)c2n[nH]cc2NC(=O)c2cc(F)cc(F)c2)CC1

>  <GROUP LABEL>
bucket 1

$$$$
>  <MOLECULE>
CO[C@H]1CC[C@H](NC(=O)c2n[nH]cc2NC(=O)c2cc(Cl)cc(Cl)c2)CC1

>  <GROUP LABEL>
bucket 3

$$$$
>  <MOLECULE>
COc1ccccc1C(=O)Nc1c[nH]nc1C(=O)N[C@H]1CC[C@H](OC)CC1

>  <GROUP LABEL>
bucket 1

$$$$
>  <MOLECULE>
CO[C@H]1CC[C@H](NC(=O)c2n[nH]cc2NC(=O)Cc2c(Cl)cccc2Cl)CC1

>  <GROUP LABEL>
bucket 3

$$$$
>  <MOLECULE>
CO[C@H]1CC[C@H](NC(=O)c2n[nH]cc2NC(=O)c2ccccc2C(F)(F)F)CC1

>  <GROUP LABEL>
bucket 1

$$$$
>  <MOLECULE>
COc1cccc(OC)c1C(=O)Nc1c[nH]nc1C(=O)NC1CCN(Cc2ccccc2)C1 (stereo unspecified)

>  <GROUP LABEL>
bucket 3

$$$$
>  <MOLECULE>
COc1cccc(OC)c1C(=O)Nc1c[nH]nc1C(=O)NC1CCC(C)CC1 (mixture of isomers)

>  <GROUP LABEL>
bucket 2

$$$$
>  <MOLECULE>
CO[C@H]1CC[C@H](NC(=O)c2n[nH]cc2NC(=O)c2ccc(N3CCN(C)CC3)cc2)CC1

>  <GROUP LABEL>
bucket 1

$$$$
>  <MOLECULE>
CO[C@H]1CC[C@H](NC(=O)c2n[nH]cc2NC(=O)c2c(C)nc3ccccn23)CC1

>  <GROUP LABEL>
bucket 1

$$$$
>  <MOLECULE>
COc1cccc(OC)c1C(=O)Nc1c[nH]nc1C(=O)NCCN1CCCC1

>  <GROUP LABEL>
bucket 3

$$$$
>  <MOLECULE>
CO[C@H]1CC[C@H](NC(=O)c2n[nH]cc2NC(=O)c2ccccc2Nc2ccccc2)CC1

>  <GROUP LABEL>
bucket 2

$$$$
>  <MOLECULE>
COc1cccc(OC)c1C(=O)Nc1c[nH]nc1C(=O)Nc1ccccn1

>  <GROUP LABEL>
bucket 3

$$$$
>  <MOLECULE>
COc1cccc(OC)c1C(=O)Nc1c[nH]nc1C(=O)NC1CCCCC1

>  <GROUP LABEL>
bucket 2

$$$$
>  <MOLECULE>
CO[C@H]1CC[C@H](NC(=O)c2n[nH]cc2NC(=O)c2ccccc2)CC1

>  <GROUP LABEL>
bucket 1

$$$$
>  <MOLECULE>
COc1cccc(OC)c1C(=O)Nc1c[nH]nc1C(=O)NCC1CCCCC1

>  <GROUP LABEL>
bucket 3

$$$$
>  <MOLECULE>
COc1cccc(OC)c1C(=O)Nc1c[nH]nc1C(=O)NC1CCC1

>  <GROUP LABEL>
bucket 3

$$$$
>  <MOLECULE>
CO[C@H]1CC[C@H](NC(=O)c2n[nH]cc2NC(=O)c2ccc(F)cc2F)CC1

>  <GROUP LABEL>
bucket 2

$$$$
>  <MOLECULE>
COc1cc(OC)c(C(=O)Nc2c[nH]nc2C(=O)N[C@H]2CC[C@H](OC)CC2)c(OC)c1

>  <GROUP LABEL>
bucket 2

$$$$
>  <MOLECULE>
COc1cccc(OC)c1C(=O)Nc1c[nH]nc1C(=O)NCCCOC(C)C

>  <GROUP LABEL>
bucket 2

$$$$
>  <MOLECULE>
COc1cccc(OC)c1C(=O)Nc1c[nH]nc1C(=O)N[C@H]1CC[C@H](OC)CC1

>  <GROUP LABEL>
bucket 1

$$$$
>  <MOLECULE>
COc1cccc(OC)c1C(=O)Nc1c[nH]nc1C(=O)O

>  <GROUP LABEL>
bucket 3

$$$$
>  <MOLECULE>
CO[C@H]1CC[C@H](NC(=O)c2n[nH]cc2NC(=O)C2CCC(F)(F)CC2)CC1

>  <GROUP LABEL>
bucket 3

$$$$
>  <MOLECULE>
CO[C@H]1CC[C@H](NC(=O)c2n[nH]cc2NC(=O)c2cc3ccccn3n2)CC1

>  <GROUP LABEL>
bucket 1

$$$$
>  <MOLECULE>
COc1cccc(OC)c1C(=O)Nc1c[nH]nc1C(=O)Nc1ccncc1

>  <GROUP LABEL>
bucket 3

$$$$
>  <MOLECULE>
COc1cccc(OC)c1C(=O)Nc1c[nH]nc1C(=O)NN1CCOCC1

>  <GROUP LABEL>
bucket 3

$$$$

* * *

- STUDY SYSTEM: Mitogen-activated protein kinase 1 (Homo sapiens) (UniProt P28482)
- Sequence (P28482 whole entry): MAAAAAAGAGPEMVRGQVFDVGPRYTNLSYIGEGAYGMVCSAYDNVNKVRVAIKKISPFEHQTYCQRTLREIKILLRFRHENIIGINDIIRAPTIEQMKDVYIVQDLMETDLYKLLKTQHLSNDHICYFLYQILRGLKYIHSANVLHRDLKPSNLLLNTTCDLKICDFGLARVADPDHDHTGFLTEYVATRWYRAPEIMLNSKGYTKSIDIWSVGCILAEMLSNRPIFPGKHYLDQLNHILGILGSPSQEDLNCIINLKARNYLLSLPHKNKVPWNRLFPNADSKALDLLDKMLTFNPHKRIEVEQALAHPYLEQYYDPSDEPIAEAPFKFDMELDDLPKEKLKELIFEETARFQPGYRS
- ASSAY DETAILS: Inhibition of ERK2 (unknown origin) assessed as residual enzyme activity at 10 uM
Overview of recorded Activity for various compounds

>  <RECORD SMILES>
COc1cccc(OC)c1C(=O)Nc1c[nH]nc1C(=O)NCc1ccccc1

>  <Activity>
92%

$$$$
>  <RECORD SMILES>
CO[C@H]1CC[C@H](NC(=O)c2n[nH]cc2NC(=O)c2ccccc2)CC1

>  <Activity>
18%

$$$$
>  <RECORD SMILES>
COc1cccc(OC)c1C(=O)Nc1c[nH]nc1C(=O)N[C@H]1CC[C@H](OC)CC1

>  <Activity>
51%

$$$$
>  <RECORD SMILES>
CO[C@H]1CC[C@H](NC(=O)c2n[nH]cc2NC(=O)c2ccc(-c3ccccc3)o2)CC1

>  <Activity>
2%

$$$$

The reported numbers originate from ChEMBL document CHEMBL3352013.
